# TGI annotations
# System: MOLT-4 leukemia
# test_summary: NCI tumour cell line growth inhibition, 48 h

compound | TGI
FC(F)(F)c1ccc(Nc2nc(-c3c(C(F)(F)F)nc4ccccn34)cs2)cc1 | > 28.7 µM
Cc1nc2ccccc2n1COC(Cn1ccnc1)c1ccc(Cl)cc1Cl (configuration not stated) | > 100 µM
CN(CCCCCl)P(=O)(OCc1ccc([N+](=O)[O-])o1)OC[C@H]1O[C@@H](n2cc(F)c(=O)[nH]c2=O)C[C@@H]1O (some centres not stated) | > 46.1 µM
C=CCN1C(=O)C=C(c2ccccc2)n2ncc3cccc1c32 | > 100 µM
C=CCNC(=O)NC(=O)CSC1=NNC2(C(=O)N1)c1ccccc1-c1ccccc12 | > 10 µM
Nc1ncnc2c1ncn2C=C=CCO | > 100 µM
CCOC(=O)C1=C(C)OC2(O)C=CC(O)=C3C(=O)N(c4ccccc4)C(=O)C312 (configuration not stated) | > 100 µM
CNS(=O)(=O)NN(C)S(=O)(=O)c1ccccc1 | > 100 µM
CN1C(=Nc2ccccc2)SC1=Nc1ccccc1 | > 100 µM
COc1ccc2c3c1O[C@]1(C)C34CCN(C)C(C2)C42C=C[C@@]1(OC)c1c(O)ccc(O)c12 | > 100 µM
CC(C)[C@H](N)C(=O)N1CCC[C@H]1B(O)O | > 100 µM
COc1cc([N+](=O)[O-])c(OC)cc1-c1nc2sc(Cl)cn2c1/C(N)=N/C(=N)N | > 100 µM

---

# Test system: EKVX NSCLC
# test_summary: NCI tumour cell line growth inhibition, 48 h; in the data active = GI50 below about 0.43 µM; inactive = the rest
Possible outcomes: active, inactive

molecule | class_assignment
Cc1nn2c(/C=C3\C(=O)Nc4ccc(Cl)cc43)c(C)nc2s1 | inactive
COc1cc2c(cc1C)NC(=O)/C2=C/c1ccccn1 | active
C=C(C)C(=O)O[C@H]1CC(=C)[C@@H]2C[C@H](O)[C@](O)(CCl)[C@@H]2[C@H]2OC(=O)C(=C)[C@@H]21 | inactive
COc1cc2c(c(OC)c1OC)-c1ccc(SC)c(=O)cc1C(CO)C2 (stereo not given) | active
CC(C)N(Cc1ccccc1)c1c(S)ssc1=S | inactive

---

# Tested on: SF-268 CNS
# test_summary: NCI tumour cell line growth inhibition, 48 h

compound | experimental_target | TGI
OC(c1ccccc1)(c1ccccc1)c1ccncc1 | SF-268 CNS | > 100 µM
C/C(=N\NS(=O)(=O)c1ccc(C)cc1)C(CN1CCCCC1)C(c1ccccc1)c1c(O)c2ccccc2oc1=O (configuration not stated) | SF-268 CNS | > 100 µM
N#CC(NC12CC3CC(CC(C3)C1)C2)c1ccc2c(c1)OCO2 (configuration not stated) | SF-268 CNS | > 100 µM
C[C@]12C=CC(=O)C=C1CC[C@@H]1[C@@H]2CC[C@]2(C)OC(=O)CC[C@@H]12 | SF-268 CNS | > 500 µM
CN(C)CC/C(=N\Nc1ccc([N+](=O)[O-])cc1)c1ccccc1 | SF-268 CNS | 27.4 µM
COc1ccc(-c2c[nH]c(C(=O)O)c2-c2cc(OC)c(OC)c(OC)c2)cc1 | SF-268 CNS | > 100 µM
COc1ccc2c(c1)c(=O)oc1cc(OC/C(C)=N\O)ccc12 | SF-268 CNS | > 100 µM

---

# System: MDA-MB-231 breast
# test_summary: NCI tumour cell line growth inhibition, 48 h
# GI50 annotations

compound | GI50
COc1ccc2nc3cccc([N+](=O)[O-])c3c(NCCCCCC(=O)O)c2c1 | 838 nM
c1ccc2[nH]c(-c3ccc(-c4nccc5c4[nH]c4ccccc45)cc3)nc2c1 | 2390 nM
COc1ccc2[nH]c(O)c(N=NC(=O)c3oc4ccccc4c3C)c2c1 | 2070 nM
CCC(C)(CC(C)(C)C(=O)NCC(=O)NC(Cc1ccccc1)C(=O)NC(Cc1ccccc1)C(=O)NCC(=O)NC1CC(OC2CC(O)(C(=O)CO)Cc3c(O)c4c(c(O)c32)C(=O)c2c(OC)cccc2C4=O)OC(C)C1O)C(=O)NCC(C)O (stereo unspecified) | 119 µg/mL
COc1ccc(-c2cn(-c3cc(OC)c(OC)c(OC)c3)c(SCc3ccccc3)n2)cc1OC | > 100000 nM
COc1cnc2c(c1)C(=O)c1c-2n(CCCn2ccnc2)c(=O)c2cc(F)ccc12 | 350 nM
O=[N+]([O-])O.[Cu+2].[NH-]CC[NH-].[NH-]CC[NH-] | > 10000 nM
CC/C=C1/C(=O)C=C[C@@H]1C/C=C\CCCC(=O)OC | 4430 nM
C#Cc1c(F)ccc2cc(O)cc(-c3ncc4c(N5CC6CCC(C5)N6)nc(OC[C@@]56CCCN5C[C@H](F)C6)nc4c3F)c12 | 2360 nM
COc1ccc2cc(C(=O)/C=C/c3ccc(Cl)cc3Cl)ccc2c1 | 44600 nM
COc1ccc(C(=O)OC2C(OC3C(O)COC(O[C@H]4C[C@H]5[C@@H]6CC=C7C[C@@H](O)CC[C@]7(C)[C@H]6CC[C@]5(C)[C@H]4[C@H](C)C(=O)CCC(C)C)C3OC(N)=O)OCC(O)C2O)cc1 (stereo partly specified) | 355 nM
C=C(C)C(=O)O[C@H]1CC(=C)[C@@H]2C[C@H](O)[C@](O)(CCl)[C@@H]2[C@H]2OC(=O)C(=C)[C@@H]21 | 4280 nM
COc1cc(/C=C/C(=O)c2cccc(Nc3nc(Nc4ccccc4)nc(Nc4ccccc4)n3)c2)cc(OC)c1OC | 11700 nM
COc1ccc(C(=O)c2cc(OC)c(OC)c(OC)c2)cc1OC(=O)CCl | 36.2 nM
O=C(CCCCCCCCC(=O)N/N=C\c1ccccc1O)N/N=C\c1ccccc1O | 225 nM
CC(C)(C)OC(=O)N1CCN(CCn2cc(C(F)(F)F)c3c(Cl)ncnc32)CC1 | 11100 nM

---

# log10 of TGI annotations
# Test system: LOX IMVI melanoma
# test_summary: NCI tumour cell line growth inhibition, 48 h
measured_parameter: log10 of TGI (log10 of the value in µM)

compound | log10 of TGI
C=C1CCC2C3(C)COC(c4ccc(N(C)C)cc4)OC3CCC2(C)C1C/C=C1/C(=O)OCC1O (stereo not given) | 0.54
Cc1csc2[n+]1C(=O)/C(=C\c1ccc([N+](=O)[O-])cc1)S2 | 1.78
CCS(CC)(CC)CC1CCCC2=CCC(P(=O)(c3ccccc3)c3ccccc3)CC21 (stereo not given) | 1.54
FC(F)(F)c1ccc(Nc2nc(-c3c(C(F)(F)F)nc4ccccn34)cs2)cc1 | 0.90
COc1ccc2nc3cccc([N+](=O)[O-])c3c(NCCCCCC(=O)O)c2c1 | -0.31
COc1ccc(C(=O)OC2C(OC3C(O)COC(O[C@H]4C[C@H]5[C@@H]6CC=C7C[C@@H](O)CC[C@]7(C)[C@H]6CC[C@]5(C)[C@H]4[C@H](C)C(=O)CCC(C)C)C3OC(N)=O)OCC(O)C2O)cc1 (stereo not given in full) | -0.80
C=CCNC1=C2C[C@@H](C)C[C@@H](OC)[C@H](OC(=O)CCN)[C@H](C)/C=C(\C)[C@@H](OC(N)=O)[C@H](OC)/C=C\C=C(/C)C(=O)NC(=CC1=O)C2=O | 1.03
Cc1cccc(C)c1NC(=O)C(C#N)C1=C(Cl)C(=O)c2ccccc2C1=O (stereo not given) | 1.64
O=C(ON=C1c2ccccc2C(Br)C(Br)c2ccccc21)c1cc([N+](=O)[O-])cc([N+](=O)[O-])c1 (stereo not given) | 1.46

---

# System: HOP-92 NSCLC
# test_summary: NCI tumour cell line growth inhibition, 48 h

compound | TGI
O=C1C(Cl)C2(CC(/C=C/c3ccccc3Cl)=NN2c2cccc(S(=O)(=O)O)c2)N1c1nc2ccccc2s1 (stereo unspecified) | > 100 µM
COc1ccc(-c2cc(=O)[nH]c3c(OC)c4ccccc4c(OC)c23)cc1 | > 100 µM
OC1(c2cccs2)c2cccc(Cl)c2C(O)(c2cccs2)c2c(Cl)cccc21 (stereo unspecified) | > 100 µM
CCCCOC(=O)C1C2CCC(O2)C1C(=O)OCCCC (stereo unspecified) | > 100 µM
Nc1ncnc2nc[nH]c12 | > 250 µM
N#CC(NC12CC3CC(CC(C3)C1)C2)c1ccc2c(c1)OCO2 (stereo unspecified) | > 100 µM

---

# Test system: HCT-15 colon
# test_summary: NCI tumour cell line growth inhibition, 48 h; in the data active means GI50 below about 0.43 µM; inactive means the rest
Possible outcomes: T (active), F (inactive)

structure_string | class_assignment
COc1ccc(-c2c[nH]c(C(=O)O)c2-c2cc(OC)c(OC)c(OC)c2)cc1 | F
COc1c(C)c2c(c(O)c1C/C=C(\C)CCC(=O)O)C(=O)OC2 | T
c1ccc2[nH]c(-c3ccc(-c4nccc5c4[nH]c4ccccc45)cc3)nc2c1 | F
COc1cc(C(=O)O[C@H](C(=O)NCCCCCNC(=O)[C@@H](OC(=O)c2cc(OC)cc3c(C)cccc23)[C@]2(C)CO2)[C@]2(C)CO2)c2cccc(C)c2c1 | T
COc1ccc(-c2cc(=O)[nH]c3c(OC)c4ccccc4c(OC)c23)cc1 | T
CC(C)(C)OC(=O)N1CCN(CCn2cc(C(F)(F)F)c3c(Cl)ncnc32)CC1 | F
CCCCCCCCCCCCCCCCCCOc1ccccc1CC(=O)OCC[N+]1(C)CCCCC1 | F
